Molecular target: hT1R2/hT1R3 sweet receptor expressed in HEK293 cell line (Homo sapiens, UniProt Q7RTX0+Q8TE23)
Construct: expressed in transfected cells; host or cells: HEK293 derivative stably expressing Gα15 and hT1R2/hT1R3, clone S-9
Sequence (Q8TE23 20-839): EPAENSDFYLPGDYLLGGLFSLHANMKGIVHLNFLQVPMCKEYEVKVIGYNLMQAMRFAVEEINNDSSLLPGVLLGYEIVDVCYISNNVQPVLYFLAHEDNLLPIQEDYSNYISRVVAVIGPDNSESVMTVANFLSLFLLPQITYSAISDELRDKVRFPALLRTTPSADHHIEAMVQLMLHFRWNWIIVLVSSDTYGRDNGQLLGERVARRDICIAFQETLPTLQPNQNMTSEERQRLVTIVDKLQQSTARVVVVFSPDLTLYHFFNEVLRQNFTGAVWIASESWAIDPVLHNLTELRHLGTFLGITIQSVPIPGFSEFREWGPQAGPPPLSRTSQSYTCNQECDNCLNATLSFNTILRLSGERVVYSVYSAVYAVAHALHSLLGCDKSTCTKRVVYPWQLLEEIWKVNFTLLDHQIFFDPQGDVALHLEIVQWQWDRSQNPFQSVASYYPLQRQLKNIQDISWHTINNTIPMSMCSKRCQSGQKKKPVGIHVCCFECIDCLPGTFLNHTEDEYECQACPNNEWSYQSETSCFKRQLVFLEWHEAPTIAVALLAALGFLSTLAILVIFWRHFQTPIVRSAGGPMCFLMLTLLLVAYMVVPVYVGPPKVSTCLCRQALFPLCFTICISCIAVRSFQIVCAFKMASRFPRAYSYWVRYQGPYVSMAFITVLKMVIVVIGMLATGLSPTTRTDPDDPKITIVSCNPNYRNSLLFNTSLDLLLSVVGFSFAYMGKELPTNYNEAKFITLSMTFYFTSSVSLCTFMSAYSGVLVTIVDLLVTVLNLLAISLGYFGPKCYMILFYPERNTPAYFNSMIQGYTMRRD
Sequence (Q7RTX0 21-852): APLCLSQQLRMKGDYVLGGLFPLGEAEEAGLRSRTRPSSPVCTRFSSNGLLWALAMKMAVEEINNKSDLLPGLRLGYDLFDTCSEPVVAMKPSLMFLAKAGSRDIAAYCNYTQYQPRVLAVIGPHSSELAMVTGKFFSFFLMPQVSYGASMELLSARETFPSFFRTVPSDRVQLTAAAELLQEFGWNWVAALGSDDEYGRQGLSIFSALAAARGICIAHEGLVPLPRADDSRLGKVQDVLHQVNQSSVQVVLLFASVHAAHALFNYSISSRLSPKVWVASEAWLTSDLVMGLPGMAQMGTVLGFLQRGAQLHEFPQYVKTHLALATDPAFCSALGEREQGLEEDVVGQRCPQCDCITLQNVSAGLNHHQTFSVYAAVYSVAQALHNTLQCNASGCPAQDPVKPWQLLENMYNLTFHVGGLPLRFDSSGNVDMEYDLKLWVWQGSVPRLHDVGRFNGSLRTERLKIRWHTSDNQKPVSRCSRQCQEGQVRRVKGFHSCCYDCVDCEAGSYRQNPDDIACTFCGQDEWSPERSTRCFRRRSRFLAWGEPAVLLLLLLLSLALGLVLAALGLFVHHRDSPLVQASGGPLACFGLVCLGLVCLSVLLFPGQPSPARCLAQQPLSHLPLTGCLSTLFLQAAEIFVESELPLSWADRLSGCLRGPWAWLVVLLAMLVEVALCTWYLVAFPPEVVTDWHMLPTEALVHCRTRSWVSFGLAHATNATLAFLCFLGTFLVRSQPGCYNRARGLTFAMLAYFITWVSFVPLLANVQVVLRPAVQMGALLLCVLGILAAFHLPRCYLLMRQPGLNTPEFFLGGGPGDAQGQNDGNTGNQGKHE
Experiment: In vitro hT1R2/hT1R3-HEK293 taste receptor activation assay (FLIPR)
Type: cell-based
Details: read-out: EC50 for activation of a hT1R2/hT1R3 sweet receptor expressed in HEK293 cell line
value kind: pEC50
Note on units: pEC50 is unitless, being -log10 of a concentration expressed in mol/L.

Data request: What pEC50 value was documented for this compound, COCCNC(=O)C(C)c1ccc(-c2ccccc2)c(F)c1 (stereo not shown) ?
Data returned: 5.19

Data request: Repeat for the following compound: CC(C)CNC(=O)C(C)(C)c1ccc(-c2cncc(C#N)c2)cn1
Data returned: 4.97

Data request: Repeat for the following compound: CCOCc1cncc(-c2ccc(C(C)(C)C(=O)NCC(C)C)cc2)c1
Data returned: 6.59

Data request: Repeat for the following compound: CC(C)(C(=O)NCc1ccco1)c1ccc(-c2cncc(C#N)n2)cc1
Data returned: 6.33

Data request: Repeat for the following compound: CC(C)CNC(=O)C(C)(C)c1ccc(-c2cncnc2)cc1
Data returned: 6.00

Data request: Repeat for the following compound: COCc1cccc(-c2ccc(C(C)(C)C(=O)NCC(C)C)cc2OC)c1
Data returned: 6.59

Data request: Repeat for the following compound: CC[C@@H](C)NC(=O)C(C)(C)c1ccc(-c2cncc(C#N)n2)cc1
Data returned: 6.85

Data request: Repeat for the following compound: CC(C)CNC(=O)C(C)(C)c1ccc(-c2ccoc2)cc1
Data returned: 6.47

Data request: Repeat for the following compound: CC(C)CNC(=O)C(C)(C)c1ccc(-c2ccccc2C=O)cc1
Data returned: 6.09

Data request: Repeat for the following compound: CC(C)CNC(=O)C(C)(C)c1cc(-c2ccccc2)no1
Data returned: 5.17

Data request: Repeat for the following compound: CC(NC(=O)C(C)(C)c1ccc(-c2cncc(C#N)n2)cc1)c1ccco1 (stereo not shown)
Data returned: 6.72

Data request: Repeat for the following compound: CC[C@@H](CO)NC(=O)C(C)(C)c1ccc(-c2cncc(C#N)n2)cc1
Data returned: 5.99

Data request: Repeat for the following compound: Cc1cscc1-c1ccc(C(C)(C)C(=O)NCC(C)C)cc1O
Data returned: 5.98

Data request: Repeat for the following compound: Cc1cscc1-c1ccc(C(C)(C)C(=O)NCC(C)C)cc1
Data returned: 6.07

Data request: Repeat for the following compound: CC(C)CNC(=O)C(C)(C)c1cnn(-c2ccccc2)c1
Data returned: 4.83

Data request: Repeat for the following compound: COC(C)CNC(=O)C(C)(C)c1ccc(-c2cncc(C#N)n2)cc1 (stereo not shown)
Data returned: 6.04

Data request: Repeat for the following compound: COCc1cccc(-c2ccc(C(C)(C)C(=O)NCC(C)C)cc2)c1
Data returned: 6.21

Data request: Repeat for the following compound: CC(C)CNC(=O)C(C)(C)c1ccc(-c2cccc(C#N)c2)cc1
Data returned: 6.70

Data request: Repeat for the following compound: COc1cccc(-c2ccc(C(C)(C)C(=O)NCC(C)C)cc2)c1
Data returned: 5.37
